Provenance of the data: a melting point compilation (Tetko et al.; mined from patent text by program, amines drawn as free bases though some values may be those of a salt)

ASSAY_METRIC: melting point

Here's what some known entries look like.
CC(=O)c1ccc(Nc2nc(N)c(C(=O)c3sccc3C)s2)cc1 | 171 to 172 °C
CCOC(=O)C(Oc1cc(-c2ccccc2)on1)C(=O)OCC | 62 to 64 °C
CC(C)CNc1nc2c(n1C)C(=O)N1CCN=C1N2Cc1ccc(Cl)cc1 | 185 to 187 °C
CC(=N)c1ccccc1O | 137 to 139 °C
Cc1cccc(C(=O)C2=C(O)C(=O)N(c3ccc(C)nn3)C2c2ccc(C(C)C)cc2)c1 (stereo not drawn) | 245 to 250 °C

Asked: Need melting point, item O=C(c1ccc2[nH]c3ccccc3c2c1)N1CCCCC1
Given back: 221 to 222 °C
